assay: Incorporation (solubilization) of hydrophobic active ingredients into aqueous solution of heparin hydrophobized with cholic acid (HEP19CHO), dissolution method; type: physicochemical; conditions: HEP19CHO solution 8 mg/ml, after 3 days; HEP19CHO solution minus aqueous phase
metric: concentration of carbamazepine present in the hydrophobic domains (µg/mL)
Numbers only; they are read as µg/mL.

Ask | For NC(=O)N1c2ccccc2C=Cc2ccccc21 [Carbamazepine] , write its concentration of carbamazepine present in the hydrophobic domains.
Reply | 560
